Test system: CCRIS mutagenicity, Ames/micronucleus/aberration tests
Assay: CCRIS mutagenicity studies
Settings: Test System: AMES SALMONELLA TYPHIMURIUM; Strain/Indicator: TA97; Metabolic Activation: RAT, LIVER, S-9, PCB; Method: STANDARD PLATE
Active and inactive are the calls of the source. The rule behind the calls is not given here.
Assign a class; possible classes are active, inactive

Prompt: Field: outcome | Entry: `Cc1ccc2c(ccc3ccccc32)c1`
Completion: active

Prompt: Field: outcome | Entry: `Cc1ccc2ccc3ccc(C)cc3c2c1`
Completion: inactive

Prompt: Field: outcome | Entry: `O=C1C=Cc2ccc3c4c(ccc1c24)C=CC3=O`
Completion: active

Prompt: Field: outcome | Entry: `O=C(O)/C=C\Cl`
Completion: active

Prompt: Field: outcome | Entry: `Cc1ccc2c(c1)C(=O)c1ccccc1C2=O`
Completion: inactive

###

System: CCRIS mutagenicity, Ames/micronucleus/aberration tests
Experiment: CCRIS mutagenicity studies
Details: Test System: AMES SALMONELLA TYPHIMURIUM; Strain/Indicator: TA100; Metabolic Activation: NONE; Method: STANDARD PLATE
Active and inactive are the calls of the source. No rule for the calls is given here.
ATTRIBUTE_MEASURED: mutagenic call

Noted for `BrCc1c2ccccc2cc2ccc3ccccc3c12` : its mutagenic call reads active; positive

Noted for `O=c1[nH]cnc2[nH]ncc12` : its mutagenic call reads inactive; negative

Noted for `c1ccc2c(c1)cc1sc3cccc4ccc2c1c43` : its mutagenic call reads inactive; negative

Noted for `CC=O` : its mutagenic call reads inactive; negative

Noted for `Cc1ccccc1N` : its mutagenic call reads inactive; negative

***
Noted for `O=[N+]([O-])c1cccc(NS(=O)(=O)c2cccc3cccnc23)c1` : its mutagenic call reads inactive; negative

Noted for `NC(=O)c1cc(N2CC2)c([N+](=O)[O-])cc1[N+](=O)[O-]` : its mutagenic call reads active; positive

Noted for `O=[N+]([O-])c1ccc(OC[C@@H]2CO2)cc1` : its mutagenic call reads active; positive

Noted for c1cnc2c(c1)[C@@H]1O[C@H]1C1OC21 (some centres not stated) : its mutagenic call reads inactive; negative

Noted for `Cc1nc2ccccc2s1` : its mutagenic call reads inactive; negative

Noted for `C1COCCO1` : its mutagenic call reads inactive; negative

Noted for `Nc1ccc2cc(S(=O)(=O)O)c(N=Nc3ccc(N=Nc4ccccc4)cc3OCCO)c(O)c2c1` : its mutagenic call reads inactive; negative

Noted for `Cc1ccc(C(=O)n2ncc(Cl)c(Cl)c2=O)cc1` : its mutagenic call reads inactive; negative

Noted for `CCOP(=O)(OCC)Oc1nc(Cl)c(Cl)cc1Cl` : its mutagenic call reads inactive; negative

Noted for `Nc1cc(S(=O)(=O)O)cc2c1C(=O)/C(=N/Nc1ccc(-c3ccc(N/N=C4/C(=O)c5c(N)cc(S(=O)(=O)O)cc5C=C4S(=O)(=O)O)cc3)cc1)C(S(=O)(=O)O)=C2` : its mutagenic call reads active; positive

###

Tested on: CCRIS mutagenicity, Ames/micronucleus/aberration tests
Assay: CCRIS mutagenicity studies
Conditions: Test System: AMES SALMONELLA TYPHIMURIUM; Strain/Indicator: TA100; Metabolic Activation: NONE; Method: STANDARD PLATE
Active and inactive are the calls of the source. No rule for the calls is given here. Where a SMILES comes first, the peptide text is derived from it. [ ]: non-standard residue; d: D form. pGlu = O=C1CC[C@@H](C(=O)O)N1; Thz = O=C(O)[C@@H]1CSCN1
ATTRIBUTE_MEASURED: mutagenic call

Worked examples follow.
Note to self: mutagenic call of `O=C1c2ccc3nc(-c4ccccc4)sc3c2C(=O)c2ccc3nc(-c4ccccc4)sc3c21` with CCRIS mutagenicity, Ames/micronucleus/aberration tests was inactive; negative

Note to self: mutagenic call of `O=C(/C=C/c1ccccc1)c1ccc(-c2ccccc2)cc1` with CCRIS mutagenicity, Ames/micronucleus/aberration tests was inactive; negative

Note to self: mutagenic call of `Oc1ccc2ccc3c4ccccc4ccc3c2c1` with CCRIS mutagenicity, Ames/micronucleus/aberration tests was inactive; negative

Note to self: mutagenic call of `CCCCOC(=O)CCCCCCCCC(=O)OCCCC` with CCRIS mutagenicity, Ames/micronucleus/aberration tests was inactive; negative

Note to self: mutagenic call of `O=[N+]([O-])c1c2c(cc3c1ccc1ccccc13)C=C[C@@H](O)[C@@H]2O` with CCRIS mutagenicity, Ames/micronucleus/aberration tests was inactive; negative

***
Note to self: mutagenic call of `CCSCCSP(=S)(OC)OC` with CCRIS mutagenicity, Ames/micronucleus/aberration tests was inactive; negative

Note to self: mutagenic call of `O=C1c2ccccc2C(=O)N1SC1CCCCC1` with CCRIS mutagenicity, Ames/micronucleus/aberration tests was inactive; negative

Note to self: mutagenic call of O=C1CC[C@@H](C(=O)N2CSC[C@H]2C(=O)O)N1 ([pGlu]-[Thz]-OH) with CCRIS mutagenicity, Ames/micronucleus/aberration tests was inactive; negative

Note to self: mutagenic call of CC(C)NCC(O)COc1cccc2c1C=CC2 (configuration not stated) with CCRIS mutagenicity, Ames/micronucleus/aberration tests was inactive; negative

Note to self: mutagenic call of O=NN(c1ccc([N+](=O)[O-])cc1)C1OC[C@@H](O)[C@H](O)[C@@H]1O (some centres not stated) with CCRIS mutagenicity, Ames/micronucleus/aberration tests was active; positive

Note to self: mutagenic call of `Cn1ccnc1N=O` with CCRIS mutagenicity, Ames/micronucleus/aberration tests was active; positive

Note to self: mutagenic call of `COC(=O)C1=CCCN(C)C1` with CCRIS mutagenicity, Ames/micronucleus/aberration tests was active; positive
